# ASSAY_TARGET: recombinant homotrimeric HA, A/South Carolina/1/18 H1N1 (Influenza A virus A/South Carolina/1/18 (H1N1))
# MEASUREMENT_PROTOCOL: trimeric HA microarray, transfection set 4
# CONDITION_PARAMETERS: remark: other sources report otherwise
READOUT: Trimeric HA Binding RLU (RLU)
Response body: numeric value in RLU, unit text excluded.

The recorded Trimeric HA Binding RLU for entry TCN-536 (5095_N01) (antibody, V domains shown) VH: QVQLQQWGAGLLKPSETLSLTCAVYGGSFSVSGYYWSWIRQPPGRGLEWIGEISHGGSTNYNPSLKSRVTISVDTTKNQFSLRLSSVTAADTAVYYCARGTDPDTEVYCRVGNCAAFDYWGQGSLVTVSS VL: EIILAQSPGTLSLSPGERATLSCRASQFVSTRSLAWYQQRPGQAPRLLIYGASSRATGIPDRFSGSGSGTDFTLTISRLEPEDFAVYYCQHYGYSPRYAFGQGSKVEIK equals 39
